The reported measurements were obtained from ChEMBL document CHEMBL4706516.

Measurement record for L-lactate dehydrogenase A chain (Homo sapiens, UniProt P00338); quantity recorded: pIC50.
Numbers only, as −log10 of the molar value.

| Mol | Assay readout | Quantitative readout |
| --- | --- | --- |
| Cc1occc(=O)c1OCCN1CCN(C(=O)c2ccccc2F)CC1 | pIC50 | 5.47 |

Consider the following items and state reported pIC50 for each.
1. Cc1occc(=O)c1OCCN1CCN(C(=O)c2ccc(C(F)(F)F)cc2)CC1
2. Cc1occc(=O)c1OCC(=O)N1CCN(c2cccc(Cl)c2)CC1

5.33
5.23

Hi! Can you tell me pIC50 for each of these molecules?
1. Cc1occc(=O)c1OCC(=O)N1CCN(C(c2ccccc2)c2ccccc2)CC1
2. Cc1occc(=O)c1OCC(=O)N1CCN(c2ccc(F)cc2)CC1
3. Cc1occc(=O)c1OCCN1CCN(C(=O)c2ccccc2)CC1
4. COc1cccc(N2CCN(C(=O)COc3c(C)occc3=O)CC2)c1
5. COc1ccc(N2CCN(C(=O)COc3c(C)occc3=O)CC2)cc1

1: 5.14; 2: 5.43; 3: 5.55; 4: 5.34; 5: 6.25

---

Tested on: A549
Assay: Anticancer activity against human A549 assessed as cell growth inhibition measured after 72 hrs by MTT assay
Format: functional, cell-based
Settings: A549, 72 h
I'd be grateful if you could share measured EC50 for these entries.
Numbers only, in µM.

Batch: EC50 for all items listed.
1. Cc1occc(=O)c1OCCN1CCN(C(=O)c2ccc(F)cc2)CC1
2. Cc1occc(=O)c1OCC(=O)N1CCN(c2cccc(Cl)c2)CC1
3. Cc1occc(=O)c1OCCN1CCN(C(=O)c2ccco2)CC1

1. 13.2
2. 18.5
3. 15.7

---

Tested on: A549
Experiment: Anticancer activity against human A549 assessed as cell growth inhibition measured after 72 hrs by MTT assay
Assay type: functional, cell-based
Conditions: A549, 72 h
Assay readout: EC50

Please review the entries below; each comes with its answer.
| Mol | EC50 |
| --- | --- |
| Cc1occc(=O)c1OCCN1CCN(C(=O)c2ccc(Cl)cc2)CC1 | > 20 µM |
| Cc1occc(=O)c1OCCN1CCN(C(=O)c2ccccc2F)CC1 | > 20 µM |

Proceed to the following item.
For A549, provide EC50 of "Cc1occc(=O)c1OCCN1CCN(C(=O)c2ccc(C(F)(F)F)cc2)CC1" please.
> 20 µM
